# Tested on: Klebsiella pneumoniae
# EXPERIMENT_DESCRIPTION: Inhibition of beta-lactamase in Klebsiella pneumoniae CL 6569 assessed as drug concentration required to reduce imipenem MIC to 4 ug/ml
Reported INH values for a set of compounds
Answer with a number only, understood to be in µM.

In [3]: df
Out[3]:
                                smiles_data  number
0  N[C@@H](Cc1ccc(NC(=O)[C@@H]2CC[C@@H]3CN2C(=O)N3OS(=O)(=O)O)cc1)C(=O)O      50

Fill in INH for record "O=C(N[C@H]1CCCNCC1)[C@@H]1CC[C@@H]2CN1C(=O)N2OS(=O)(=O)O"
12.5

Read off the recorded INH for "O=C(N[C@@H]1CCNC1)[C@@H]1CC[C@@H]2CN1C(=O)N2OS(=O)(=O)O"
6.25

For the compound "C[n+]1ccc(NC(=O)[C@@H]2CC[C@@H]3CN2C(=O)N3OS(=O)(=O)[O-])cc1" , give its measured INH value.
25

----------
# EXPERIMENT_DESCRIPTION: Inhibition of beta-lactamase KPC-2 in Klebsiella pneumoniae assessed as inhibition of hydrolysis of nitrocefin
Here, each record is paired with measured pIC50 data.
Lab note — pIC50 values are minus log10 of concentrations in M.

Illustrative cases are given below, each with its answer.
                                smiles_data  attribute_measured  number
0  O=C(NC1CCS(=O)(=O)CC1)[C@@H]1CC[C@@H]2CN1C(=O)N2OS(=O)(=O)O               pIC50    6.82
1  O=C(Nc1cccnc1)[C@@H]1CC[C@@H]2CN1C(=O)N2OS(=O)(=O)O               pIC50    7.38

# return recorded pIC50 for entry "O=C(O)c1ccc(NC(=O)[C@@H]2CC[C@@H]3CN2C(=O)N3OS(=O)(=O)O)cc1"
8.00

Return value of pIC50 for input "CN(C(=O)[C@@H]1CC[C@@H]2CN1C(=O)N2OS(=O)(=O)O)C1CCNCC1" , no commentary.
5.60

Supply recorded pIC50 for "O=C(OC1CCNCC1)[C@@H]1CC[C@@H]2CN1C(=O)N2OS(=O)(=O)O" here.
8.05

State its pIC50: "O=C(N[C@@H]1CCNC1)[C@@H]1CC[C@@H]2CN1C(=O)N2OS(=O)(=O)O"
6.59

Name the recorded pIC50 of the item "N[C@@H](Cc1ccc(NC(=O)[C@@H]2CC[C@@H]3CN2C(=O)N3OS(=O)(=O)O)cc1)C(=O)O" in your answer.
8.52

----------
# EXPERIMENT_DESCRIPTION: Inhibition of beta-lactamase AmpC in Acinetobacter baumannii assessed as inhibition of hydrolysis of nitrocefin
pIC50: −log10 of the molar value.
# binarize pIC50: threshold 6 inclusive, high side satisfied, low side not satisfied

                                smiles_data       category
0  O=C(NC1CCNCC1)[C@@H]1CC[C@@H]2CN1C(=O)N2OS(=O)(=O)O  not satisfied
1  Nc1cccc(NC(=O)[C@@H]2CC[C@@H]3CN2C(=O)N3OS(=O)(=O)O)n1      satisfied

From here, focus on the item given below.
In plain terms: is recorded pIC50 at least 6 for "O=C(N[C@H]1CCCNCC1)[C@@H]1CC[C@@H]2CN1C(=O)N2OS(=O)(=O)O" ?
not satisfied

----------
# System: Pseudomonas aeruginosa
# EXPERIMENT_DESCRIPTION: Inhibition of beta-lactamase in Pseudomonas aeruginosa CL 5701 assessed as drug concentration required to reduce imipenem MIC to 4 ug/ml
Known INH of a selection of molecules
Kindly provide the numeric value in µM only, without the unit symbol.

// worked examples, INH included
In [3]: df
Out[3]:
                                   molecule  attribute_measured  number
0  O=C(N[C@H]1CCNC1)[C@@H]1CC[C@@H]2CN1C(=O)N2OS(=O)(=O)O                 INH    3.12
1  O=C(NC1CCNCC1)[C@@H]1CC[C@@H]2CN1C(=O)N2OS(=O)(=O)O [RELEBACTAM]                 INH     4.7

Return value of INH for input "O=C(Nc1cccnc1)[C@@H]1CC[C@@H]2CN1C(=O)N2OS(=O)(=O)O" , no commentary.
100

Specify reported INH for the molecule shown: "O=C(OC1CCNCC1)[C@@H]1CC[C@@H]2CN1C(=O)N2OS(=O)(=O)O"
6.25

Please report the measured INH for "O=C(Nc1ccccn1)[C@@H]1CC[C@@H]2CN1C(=O)N2OS(=O)(=O)O"
12.5

Fill in INH for record "C[n+]1ccc(NC(=O)[C@@H]2CC[C@@H]3CN2C(=O)N3OS(=O)(=O)[O-])cc1"
25

Indicate its recorded INH; the molecule in question is "O=C(N[C@H]1CCCNCC1)[C@@H]1CC[C@@H]2CN1C(=O)N2OS(=O)(=O)O"
6.25

----------
Listed here: items and their measured log10 IC50.
# TARGET_OR_TEST_SYSTEM: Beta-lactamase (Acinetobacter baumannii, UniProt Q8RLA6)
# Sequence (Q8RLA6 whole entry): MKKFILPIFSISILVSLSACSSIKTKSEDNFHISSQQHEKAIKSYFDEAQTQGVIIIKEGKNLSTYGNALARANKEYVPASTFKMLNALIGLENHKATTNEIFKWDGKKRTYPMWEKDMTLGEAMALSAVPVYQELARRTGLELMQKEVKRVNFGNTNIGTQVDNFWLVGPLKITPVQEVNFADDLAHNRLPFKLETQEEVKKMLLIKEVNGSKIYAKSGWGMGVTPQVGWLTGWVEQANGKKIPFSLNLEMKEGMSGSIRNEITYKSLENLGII
# EXPERIMENT_DESCRIPTION: Inhibition of beta-lactamase Oxa40 in Acinetobacter baumannii assessed as inhibition of hydrolysis of nitrocefin
Log scale reminder: IC50 in µM, then log10 taken.

In [3]: df
Out[3]:
                                smiles_data  attribute_measured  number
0  NCc1ccc(NC(=O)[C@@H]2CC[C@@H]3CN2C(=O)N3OS(=O)(=O)O)nc1          log10 IC50    0.64
1  O=C(Nc1ccccn1)[C@@H]1CC[C@@H]2CN1C(=O)N2OS(=O)(=O)O          log10 IC50   -0.28
2  Nc1cccc(NC(=O)[C@@H]2CC[C@@H]3CN2C(=O)N3OS(=O)(=O)O)n1          log10 IC50   -0.44
3  O=C(Nc1cccnc1)[C@@H]1CC[C@@H]2CN1C(=O)N2OS(=O)(=O)O          log10 IC50    1.30
4  O=C(Nc1ccncc1)[C@@H]1CC[C@@H]2CN1C(=O)N2OS(=O)(=O)O          log10 IC50    1.30

Return log10 IC50 for the following compound: "O=C(OC1CCNCC1)[C@@H]1CC[C@@H]2CN1C(=O)N2OS(=O)(=O)O"
1.11

Quick one: give measured log10 IC50 for "N[C@@H](Cc1ccc(NC(=O)[C@@H]2CC[C@@H]3CN2C(=O)N3OS(=O)(=O)O)cc1)C(=O)O"
1.45

Input "O=C(O)c1ccc(NC(=O)[C@@H]2CC[C@@H]3CN2C(=O)N3OS(=O)(=O)O)cc1" , output reported log10 IC50.
0.68

----------
# EXPERIMENT_DESCRIPTION: Inhibition of beta-lactamase AmpC in Pseudomonas aeruginosa assessed as inhibition of hydrolysis of nitrocefin
Reported IC50 values for the following compounds.
All answers are understood in nM, so give the number only.

// solved cases for IC50 follow
>>> df
                                   compound  attribute_measured  number
0  O=C(N[C@H]1CCNC1)[C@@H]1CC[C@@H]2CN1C(=O)N2OS(=O)(=O)O                IC50     140
1  NCc1ccc(NC(=O)[C@@H]2CC[C@@H]3CN2C(=O)N3OS(=O)(=O)O)nc1                IC50       3
2  O=C(NC1CCNCC1)[C@@H]1CC[C@@H]2CN1C(=O)N2OS(=O)(=O)O [RELEBACTAM]                IC50     465

Let us move to another entry and its IC50.
Given the compound "O=C(Nc1cccnc1)[C@@H]1CC[C@@H]2CN1C(=O)N2OS(=O)(=O)O" , write its reported IC50.
37

----------
INH values by entry
# Test system: Klebsiella pneumoniae
# EXPERIMENT_DESCRIPTION: Inhibition of beta-lactamase in Klebsiella pneumoniae CL 6569 assessed as drug concentration required to reduce imipenem MIC to 4 ug/ml
Just the number in µM, nothing appended.

Consider the compound "O=C(Nc1cccnc1)[C@@H]1CC[C@@H]2CN1C(=O)N2OS(=O)(=O)O" . State its measured INH.
50

----------
# EXPERIMENT_DESCRIPTION: Inhibition of beta-lactamase AmpC in Acinetobacter baumannii assessed as inhibition of hydrolysis of nitrocefin
ATTRIBUTE_MEASURED: IC50 (µM)
API: value field is a number in µM; no unit string.

                                smiles_data  attribute_measured  unit_name  number
0  CN(C(=O)[C@@H]1CC[C@@H]2CN1C(=O)N2OS(=O)(=O)O)C1CCNCC1                IC50         µM     2.1
1  N[C@@H](Cc1ccc(NC(=O)[C@@H]2CC[C@@H]3CN2C(=O)N3OS(=O)(=O)O)cc1)C(=O)O                IC50         µM     1.1
2  O=C(N[C@H]1CCNC1)[C@@H]1CC[C@@H]2CN1C(=O)N2OS(=O)(=O)O                IC50         µM     5.6
3  O=C(Nc1ccncc1)[C@@H]1CC[C@@H]2CN1C(=O)N2OS(=O)(=O)O                IC50         µM    1.05

For the compound "NCc1ccc(NC(=O)[C@@H]2CC[C@@H]3CN2C(=O)N3OS(=O)(=O)O)nc1" , give its reported IC50.
0.026

Annotate the compound "O=C(O)c1ccc(NC(=O)[C@@H]2CC[C@@H]3CN2C(=O)N3OS(=O)(=O)O)cc1" with its measured IC50.
0.46

Output measured IC50 for this item: "O=C(N[C@@H]1CCNC1)[C@@H]1CC[C@@H]2CN1C(=O)N2OS(=O)(=O)O"
27

Specify reported IC50 for the compound shown: "C[n+]1ccc(NC(=O)[C@@H]2CC[C@@H]3CN2C(=O)N3OS(=O)(=O)[O-])cc1"
12

Give me measured IC50, please, for this compound: "O=C(NCC1CCNCC1)[C@@H]1CC[C@@H]2CN1C(=O)N2OS(=O)(=O)O"
2.2

Identify IC50 associated with the compound "O=C(Nc1cccnc1)[C@@H]1CC[C@@H]2CN1C(=O)N2OS(=O)(=O)O"
1.2

Query IC50 for "O=C(Nc1ccccn1)[C@@H]1CC[C@@H]2CN1C(=O)N2OS(=O)(=O)O"
0.023

Specify IC50 for "O=C(N[C@@H]1CCCNCC1)[C@@H]1CC[C@@H]2CN1C(=O)N2OS(=O)(=O)O" and stop.
1.2

Query IC50 for "CN1CCC(NC(=O)[C@@H]2CC[C@@H]3CN2C(=O)N3OS(=O)(=O)O)CC1"
2.7

Give IC50 for the following compound: "O=C(NC1CCS(=O)(=O)CC1)[C@@H]1CC[C@@H]2CN1C(=O)N2OS(=O)(=O)O"
0.47

Consider the compound "O=C(OC1CCNCC1)[C@@H]1CC[C@@H]2CN1C(=O)N2OS(=O)(=O)O" and give its recorded IC50.
1.1
